FYI, the data here is from patent US20240309109A1.

Listing of recorded EC50 by entry.
- system_under_test: T1, human CD38 on cells (human, UniProt P28907 1-300)
- T1 construct: The cell that carried CD38 is named under assay in each row; also called CD38 on Raji, RPMI8226, OPM2, CCRF-CEM, human erythrocytes, CD38 CHO-K1 transfectants
- assay_info: FACS Scatchard on RPMI8226 cells

binder: MOR06183 Fab (Fab, V domains shown, Fab format) VH: QVQLVESGGGLVQPGGSLRLSCAASGFTFSSYYMNWVRQAPGKGLEWVSGINMESTRIYYADSVKGRFTISRDNSKNTLYLQMNSLRAEDTAVYYCARDLPLVYTGFAYWGQGTLVTVSS VL: DIELTQPPSVSVAPGQTARISCSGDNLRHYYVYWYQQKPGQAPVLVIYGDSKRPSGIPERFSGSNSGNTATLTISGTQAEDEADYYCQTYTGGASLVFGGGTKLTVL
EC50: 28.1 nM

binder: MOR06214 Fab (Fab, V domains shown, Fab format) VH: QVQLVESGGGLVQPGGSLRLSCAASGFTFSSYAMNWVRQAPGKGLEWVSNIQRVGSTYYADSVKGRFTISRDNSKNTLYLQMNSLRAEDTAVYYCAREDGSYMTDYFAYWGQGTLVTVSS VL: DIELTQPPSVSVAPGQTARISCSGDNIGHYYVSWYQQKPGQAPVLVIYSDSNRPSGIPERFSGSNSGNTATLTISGTQAEDEADYYCQSYNGTYVFGGGTKLTVL
EC50: 5.32 nM

binder: MOR06184 Fab (Fab, V domains shown, Fab format) VH: QVQLVESGGGLVQPGGSLRLSCAASGFTFSSYYMNWVRQAPGKGLEWVSAISHDGNVKYYADSVKGRFTISRDNSKNTLYLQMNSLRAEDTAVYYCARDLPLVYTGFAYWGQGTLVTVSS VL: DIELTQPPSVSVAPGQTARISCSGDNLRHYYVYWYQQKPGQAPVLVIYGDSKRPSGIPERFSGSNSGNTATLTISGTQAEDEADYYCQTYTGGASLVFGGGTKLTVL
EC50: 4.01 nM

binder: MOR06186 Fab (Fab, V domains shown, Fab format) VH: QVQLVESGGGLVQPGGSLRLSCAASGFTFSSYYMNWVRQAPGKGLEWVSAINLSGSAKYYADSVKGRFTISRDNSKNTLYLQMNSLRAEDTAVYYCARDLPLVYTGFAYWGQGTLVTVSS VL: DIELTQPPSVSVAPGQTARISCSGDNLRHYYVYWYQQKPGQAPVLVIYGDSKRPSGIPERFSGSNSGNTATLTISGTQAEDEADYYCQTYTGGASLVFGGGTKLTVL
EC50: 6.47 nM

binder: MOR06189 Fab (Fab, V domains shown, Fab format) VH: QVQLVESGGGLVQPGGSLRLSCAASGFTFSSYYMNWVRQAPGKGLEWVSAINMIGNVTNYADSVKGRFTISRDNSKNTLYLQMNSLRAEDTAVYYCARDLPLVYTGFAYWGQGTLVTVSS VL: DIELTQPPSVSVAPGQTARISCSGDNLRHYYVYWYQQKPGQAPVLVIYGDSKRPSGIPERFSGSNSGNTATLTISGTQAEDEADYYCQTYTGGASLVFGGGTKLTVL
EC50: 9.41 nM

binder: MOR03087 Fab (Fab, V domains shown, Fab format) VH: QVQLVESGGGLVQPGGSLRLSCAASGFTFSSYYMNWVRQAPGKGLEWVSGISGDPSNTYYADSVKGRFTISRDNSKNTLYLQMNSLRAEDTAVYYCARDLPLVYTGFAYWGQGTLVTVSS VL: DIELTQPPSVSVAPGQTARISCSGDNLRHYYVYWYQQKPGQAPVLVIYGDSKRPSGIPERFSGSNSGNTATLTISGTQAEDEADYYCQTYTGGASLVFGGGTKLTVLG
EC50: 5.37 nM

binder: MOR06192 Fab (Fab, V domains shown, Fab format) VH: QVQLVESGGGLVQPGGSLRLSCAASGFTFSSYYMNWVRQAPGKGLEWVSVISPGGEAKSYADSVKGRFTISRDNSKNTLYLQMNSLRAEDTAVYYCARDLPLVYTGFAYWGQGTLVTVSS VL: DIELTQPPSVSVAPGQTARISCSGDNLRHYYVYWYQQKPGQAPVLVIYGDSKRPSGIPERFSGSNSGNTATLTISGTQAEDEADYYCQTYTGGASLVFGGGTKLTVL
EC50: 7.07 nM

binder: MOR06197 Fab (Fab, V domains shown, Fab format) VH: QVQLVESGGGLVQPGGSLRLSCAASGFTFSSYYMNWVRQAPGKGLEWVSAISMDGVYKYYADSVKGRFTISRDNSKNTLYLQMNSLRAEDTAVYYCARDLPLVYTGFAYWGQGTLVTVSS VL: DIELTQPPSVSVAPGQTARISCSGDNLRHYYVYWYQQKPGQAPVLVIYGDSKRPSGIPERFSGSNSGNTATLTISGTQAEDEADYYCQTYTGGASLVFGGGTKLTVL
EC50: 6.92 nM

binder: MOR06185 Fab (Fab, V domains shown, Fab format) VH: QVQLVESGGGLVQPGGSLRLSCAASGFTFSSYYMNWVRQAPGKGLEWVSAISMNGDYISYADSVKGRFTISRDNSKNTLYLQMNSLRAEDTAVYYCARDLPLVYTGFAYWGQGTLVTVSS VL: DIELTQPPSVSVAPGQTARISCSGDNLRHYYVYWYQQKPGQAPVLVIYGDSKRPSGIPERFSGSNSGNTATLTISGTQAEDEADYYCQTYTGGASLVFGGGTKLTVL
EC50: 7.3 nM

binder: MOR06200 Fab (Fab, V domains shown, Fab format) VH: QVQLVESGGGLVQPGGSLRLSCAASGFTFSSYYMNWVRQAPGKGLEWVSAISNNGNVTYYADSVKGRFTISRDNSKNTLYLQMNSLRAEDTAVYYCARDLPLVYTGFAYWGQGTLVTVSS VL: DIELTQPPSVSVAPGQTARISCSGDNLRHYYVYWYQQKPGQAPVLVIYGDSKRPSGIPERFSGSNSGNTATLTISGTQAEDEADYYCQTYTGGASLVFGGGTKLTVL
EC50: 5.02 nM

binder: MOR06204 Fab (Fab, V domains shown, Fab format) VH: QVQLVESGGGLVQPGGSLRLSCAASGFTFSSYAMNWVRQAPGKGLEWVSHIRKKNTSYTTEYAASVKGRFTISRDNSKNTLYLQMNSLRAEDTAVYYCAREDGSYMTDYFAYWGQGTLVTVSS VL: DIELTQPPSVSVAPGQTARISCSGDNIGHYYVSWYQQKPGQAPVLVIYSDSNRPSGIPERFSGSNSGNTATLTISGTQAEDEADYYCQSYNGTYVFGGGTKLTVL
EC50: 6.36 nM
